// provenance: the supplement of paper PMC9170038

- Tested on: K4 kissing-loop RNA reporter;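 note: bound reporter read as fluorescence of individual clusters on recovered sequencing chips by microscopy, with normalized cluster intensities fitted with a binding model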
- ASSAY NOTES: apparent KD of K4 kissing-loop reporter; higher = weaker reporter binding
- SETTINGS: Eterna round: R107; input ligand: arginine 13.2 mM
OBSERVED PROPERTY: apparent KD of K4 kissing-loop reporter (nM)

SEQUENCE INPUT	UNIT DESCRIPTOR	VALUE MEASURED
GUCCCGAGUGAUGUUCGGGUCGUUCGGGAAGGAGCGCCCGCAAGGGCAGGUAGGUCGCCCGGAUCCCUCAGGUAACUGAGGGACC [#2 Same State - Arginine A Attempt #26 (HarryS)]	nM	428
UAUCAGAUUACUGAUACCAGUCUAAAGACAGUGAUGUUGUCUGAUCGACCACGAUCCAAGGACCCUUGGCAGCAGUGUACUAUUC [#30 K4 Theophylline B Same State]	nM	183
GCCUUAUAUCGAGCUACAGCUCGAUUUGGUCGAGGACCGGUACGGCCGCCACUCGAAUGAUAGUGAUGUUAUCAUUAUGGCCUAA [JR_ExcTryptoA_Sub022]	nM	137
GUUACGCAUGGAAGGAGCGCUCUCAUGCUUAAUAACACAGUGAUGUUGUGAAUUUGCAUAAAGCAGGUAGGUCGCCAUGUGUAAC [Ex Arginine B K4 8]	nM	303
GUGAAGGAGAUGCAGUGAUGUUGCAGAGACUAGGAUAUCAGGAAACUGAGAAGGAGUCAAUUCCUUCAUUUAGACUGCAACAUAA [KL-SSFMN-A12]	nM	139
CAUGGAGUGAUGCUCCAUGAUCGGGCUUGGCAGGAUAUGGGAUCUUCCAGAAGGGCCGAUCCCAGCGAGUGAUGUUCGCUGGUCU [Exclusion FMN A GF 27]	nM	107
